The values you see were collected from the supplement of paper PMC7125110.

B1: glmS ribozyme (parent)
chain: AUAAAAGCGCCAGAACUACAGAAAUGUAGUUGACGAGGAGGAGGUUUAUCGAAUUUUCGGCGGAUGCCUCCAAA

variants of: B1; assay: self-cleavage kobs at 2500 uM GlcN6P; higher = faster cleavage; RNA array; details: with glucosamine-6-phosphate
This sample holds only a part of the variants without activity.
PROPERTY MEASURED: self-cleavage kobs at 2500 uM GlcN6P (s⁻¹)
Respond numerically; units are s⁻¹ and should not be typed.

Solved entries (count: 8):
C11A C50U C61U C67G = 0.000136
G9C C61G = 0.00371
A53U U56G = 0.00421
G44U C67A = 0.0244
C19A U30A = 0.000235
A6U A53G = 0.000178
G13C A14C U45A = 0.000212
A14U G41U = 0.000292

Given the entry A12G A53U , report its measured self-cleavage kobs at 2500 uM GlcN6P.
0.000319

Ok, now U49G U56A
0.000173

// repeat for A42G A64G C71G and report
0.00107
